- tested.target: HCV polymerase (NS5B) type 1b (Hepatitis C virus genotype 1b)
- Construct: a region encoding NS5B (J Virol 1991 March, 65(3), 1105-13, 544 amino acids after deletion of 47 amino acids on the C-terminal); 6xHis (C); made in house; host or cells: Escherichia coli
- Sequence (P26663 2420-2963): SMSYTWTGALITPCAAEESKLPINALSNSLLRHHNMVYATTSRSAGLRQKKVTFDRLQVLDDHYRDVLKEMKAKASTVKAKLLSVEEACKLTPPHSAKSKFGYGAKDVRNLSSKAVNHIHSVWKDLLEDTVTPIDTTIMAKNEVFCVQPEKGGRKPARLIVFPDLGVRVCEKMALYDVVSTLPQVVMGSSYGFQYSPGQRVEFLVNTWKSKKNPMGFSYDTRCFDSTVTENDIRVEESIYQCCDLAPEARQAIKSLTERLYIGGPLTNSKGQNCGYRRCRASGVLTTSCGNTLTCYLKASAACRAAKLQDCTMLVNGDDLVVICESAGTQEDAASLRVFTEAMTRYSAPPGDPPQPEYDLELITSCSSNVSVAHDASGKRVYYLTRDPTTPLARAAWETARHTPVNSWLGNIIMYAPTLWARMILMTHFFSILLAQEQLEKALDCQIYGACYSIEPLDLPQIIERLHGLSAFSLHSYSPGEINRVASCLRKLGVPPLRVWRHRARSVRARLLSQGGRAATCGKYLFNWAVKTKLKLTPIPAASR
- assay.remarks: Assay of enzyme (HCV polymerase) inhibitory activity, type 1b enzyme
- Type: biochemical, HCV BK strain (type 1b)
- assay.conditions: HCV polymerase inhibitory activity (IC50), 1b, type 1b enzyme 0.5 μg/ml, 25° C., 60 min
property.label: IC50

Task item: Request the reported IC50 associated with CC(C)(C)c1ccc(CNC(=O)[C@H]2CN(c3ccnc(O)n3)CCN2S(=O)(=O)c2ccc(OC(F)(F)F)cc2)cc1
Reply: < 0.1 µM

Task item: Again, but for CC(=O)N1CCN(S(=O)(=O)c2ccc(C(C)C)cc2)C(C(=O)NCc2cccc(F)c2)C1 (stereo not shown)
Reply: > 1 µM

Task item: Again, but for CC(=O)N1CCN(S(=O)(=O)c2ccc(C(C)C)cc2)C(C(=O)NCc2ccc(N3CCOCC3)cc2)C1 (stereo not shown)
Reply: > 1 µM

Task item: Again, but for CC(=O)N1CCN(S(=O)(=O)c2ccc(Cl)cc2Cl)C(C(=O)NCc2ccc(C(F)(F)F)cc2)C1 (stereo not shown)
Reply: > 1 µM

Task item: Again, but for CC(=O)N1CCN(S(=O)(=O)c2ccc(-c3ccccc3)cc2)C(C(=O)NCc2ccc(C(F)(F)F)cc2)C1 (stereo not shown)
Reply: > 1 µM

Task item: Again, but for Cc1nnc(NC(=O)N2CCN(S(=O)(=O)c3ccc(OC(F)(F)F)cc3)[C@@H](C(=O)NCc3ccc(C(F)(F)C(F)(F)F)cc3)C2)s1
Reply: 0.1 to 1 µM

Task item: Again, but for Cc1cc(C(C)C)ccc1CNC(=O)[C@H]1CN(c2nc(C)c(C(=O)O)s2)CCN1S(=O)(=O)c1ccc(OC(F)(F)F)cc1
Reply: < 0.1 µM

Task item: Again, but for CC(=O)N1CCN(S(=O)(=O)c2ccc(OC(F)(F)F)cc2)[C@@H](C(=O)NCC2CCN(C(=O)OC(C)(C)C)CC2)C1
Reply: > 1 µM

Task item: Again, but for Cc1nnn(CC(=O)N2CCN(S(=O)(=O)c3ccc(OC(F)(F)F)cc3)[C@@H](C(=O)NCc3ccc(C(F)(F)C(F)(F)F)cc3)C2)n1
Reply: 0.1 to 1 µM

Task item: Again, but for CC(C)(C)c1ccc(CNC(=O)[C@H]2CN(c3nc4cc[nH]c(=O)c4s3)CCN2S(=O)(=O)c2ccc(OC(F)(F)F)cc2)cc1
Reply: < 0.1 µM

Task item: Again, but for CC(=O)N1CCN(S(=O)(=O)c2ccc(OC(F)(F)F)cc2)[C@@H](C(=O)NCc2ccc(C(F)(F)C(F)(F)F)cc2)C1
Reply: 0.1 to 1 µM

Task item: Again, but for CC(C)c1ccc(CNC(=O)[C@H]2CN(C(=O)Cn3nnnc3CC(=O)O)CCN2S(=O)(=O)c2ccc(C(F)(F)F)cc2)cc1
Reply: 0.1 to 1 µM

Task item: Again, but for CCCc1ccc(CNC(=O)[C@H]2CN(c3cnc(C(=O)O)cn3)CCN2S(=O)(=O)c2ccc3c(c2)CCCCC3)cc1
Reply: < 0.1 µM

Task item: Again, but for CC(=O)N1CCN(S(=O)(=O)c2cccc(C(=O)O)c2)C(C(=O)NCc2ccc(C(F)(F)F)cc2)C1 (stereo not shown)
Reply: > 1 µM

Task item: Again, but for Cc1nc(N2CCN(S(=O)(=O)c3ccc(OC(F)(F)F)cc3)[C@@H](C(=O)NCc3ccc(N4CCC4)cc3)C2)sc1C(=O)O
Reply: < 0.1 µM

Task item: Again, but for CC(=O)Nc1ccc(S(=O)(=O)N2CCN(C(C)=O)CC2C(=O)NCc2ccc(C(F)(F)F)cc2)cc1 (stereo not shown)
Reply: > 1 µM

Task item: Again, but for CC(C)c1ccc(CNC(=O)[C@H]2CN(C(=O)c3ccncc3)CCN2S(=O)(=O)c2ccc(C(F)(F)F)cc2)cc1
Reply: > 1 µM

Task item: Again, but for Cc1nc(N2CCN(S(=O)(=O)c3ccc(OC(F)(F)F)cc3)[C@@H](C(=O)NCc3ccccc3)C2)sc1C(=O)O
Reply: 0.1 to 1 µM

Task item: Again, but for CC(=O)N1CCN(S(=O)(=O)c2ccc(OC(F)(F)F)cc2)[C@@H](C(=O)NCc2ccc(C(C)(C)C#N)cc2)C1
Reply: 0.1 to 1 µM

Task item: Again, but for Cc1nc(N2CCN(S(=O)(=O)c3ccc(OC(F)(F)F)cc3)[C@@H](C(=O)NCc3ccc(OC(F)(F)F)cc3)C2)sc1C(=O)O
Reply: < 0.1 µM

Task item: Again, but for CC(C)c1ccc(CNC(=O)[C@H]2CN(c3ncc(C(=O)O)s3)CCN2S(=O)(=O)c2ccc(OC(F)(F)F)cc2)cc1
Reply: < 0.1 µM

Task item: Again, but for Cc1nc(N2CCN(S(=O)(=O)c3ccc(OC(F)(F)F)cc3)[C@@H](C(=O)NCc3ccc(N4CCCC4)cc3)C2)sc1C(=O)O
Reply: < 0.1 µM
